Origin of measurements: the OPERA property sets (Mansouri et al. 2018)

# run_conditions: 20 °C
# solubility >= 70 µM gives 1, anything below gives -1

The following molecules have reported results that may help.
[[record]]
molecule = "CC(C)C(O)(c1ccc(OC(F)(F)F)cc1)c1cncnc1 (stereo unspecified)"
label_class = 1

[[record]]
molecule = "CCc1cccc(C)c1N(COC(C)C)C(=O)CCl"
label_class = 1

[[record]]
molecule = "Cc1ccccc1C(=O)Nc1cccc(OC(C)C)c1"
label_class = -1

[[record]]
molecule = "CNC(=O)Oc1cc(C)c(SC)c(C)c1"
label_class = 1

[[record]]
molecule = "CCNC(=O)C(C)OC(=O)Nc1ccccc1 (stereo unspecified)"
label_class = 1

[[record]]
molecule = "NCCO.O=C(Nc1ccc([N+](=O)[O-])cc1Cl)c1cc(Cl)ccc1O"
label_class = 1

[[record]]
molecule = "C=CCNC(=O)CN(CC=C)C(=O)C(Cl)Cl"
label_class = 1

[[record]]
molecule = "CC(C)(C)[C@@H](O)[C@@H](Cc1ccc(Cl)cc1)n1cncn1 (single isomer, unassigned)"
label_class = 1

[[record]]
molecule = "CC#Cc1cc(C)nc(Nc2ccccc2)n1"
label_class = -1

[[record]]
molecule = "CC1COc2ccccc2N1C(=O)C(Cl)Cl (stereo unspecified)"
label_class = 1


Exercise: Quick check, solubility >= 70 µM? CNC(=O)O/N=C(\C)C(C)S(C)(=O)=O (stereo unspecified)
Solution: 1

Exercise: Dear colleague, could you confirm whether CN(C)S(=O)(=O)N(SC(F)(Cl)Cl)c1ccccc1 has solubility at or above 70 µM?
Solution: -1
